assay: Validation qHTS assay for inhibitors of Activation Induced Cytidine Deaminase (AID): UDG Counterscreen signal (AID 1347427); conditions: biochemical UDG counterscreen, fluorescence signal; series mostly up to 115 µM; further: 0% is about no effect
The source made the active and inactive calls. The call rests on the fitted dose curve; in most records, active means well fitted curve in the direction sought with a large enough effect; inconclusive means small, poorly fitted or top-dose-only effect, or another doubt; inactive means no such curve, though single readings can be large or run the other way.
Measure: outcome

Please review the entries below; each comes with its answer.
>  <Molecule>
C=CC(=O)c1ccc(CCCCCC)cc1

>  <outcome>
inactive

$$$$
>  <Molecule>
CNC(=O)[C@H]1O[C@@H](n2cnc3c(NCc4cccc(I)c4)ncnc32)[C@H](O)[C@@H]1O

>  <outcome>
inactive

$$$$
>  <Molecule>
COc1cc(C(O)CO)ccc1OS(=O)(=O)O (stereo unspecified)

>  <outcome>
inactive

$$$$
>  <Molecule>
CCOC(=O)N1CCN(/[N+]([O-])=N/Oc2ccc([N+](=O)[O-])cc2[N+](=O)[O-])CC1

>  <outcome>
inactive

$$$$
>  <Molecule>
COc1ccc2c(c1)CCC1C2CC[C@@]2(C)C1CC[C@@H]2NCCCCCCN1C(=O)CCC1=O (stereo partly specified)

>  <outcome>
inactive

$$$$

Please look at the items below and tell me outcome for each one, in order.
1. CC1CN(S(=O)(=O)c2cccc3cnccc23)CCN1 (stereo unspecified)
2. CC(N)C(=O)OC(C)(C)Cc1ccc(Cl)cc1 (stereo unspecified)
3. N#C/C(=C\c1ccc(O)c(O)c1)C(=O)NCc1ccccc1
4. CN(C)CCC(c1ccc(Cl)cc1)c1ccccn1 (stereo unspecified)
5. COc1cccc(C(=O)NCCN2CCN(c3ccc(Cl)cc3)CC2)c1
6. C[C@@H](CN1CCC(Cc2ccccc2)CC1)[C@@H](O)c1ccc(O)cc1

OUT:
["inactive", "inactive", "inactive", "inactive", "inactive", "inactive"]

###

experiment: Cell Viability - N2a (AID 540); conditions: N2a mouse neuroblastoma cell viability;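 further: cells exposed to compound for 40 h at 37 °C; nearly all actives have a fitted effect of over 45% in size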
Inconclusive results are not listed. Calls of active or inactive are those of the source. Calls come from the whole dose curve; as a rule, active = well fitted cell-killing curve with a large enough effect; inconclusive = small, poorly fitted or top-dose-only effect; inactive = flat fitted curve, though single readings scatter.
Form entry, call: pick from active, inactive

>  <Structure Smiles String>
CN(C)c1ccc(N=NS(=O)(=O)O)cc1

>  <Label Class>
active

$$$$
>  <Structure Smiles String>
c1ccc2sc(SSc3nc4ccccc4s3)nc2c1

>  <Label Class>
inactive

$$$$
>  <Structure Smiles String>
CCCCCCCCCCCCCCCCCC(=O)O

>  <Label Class>
inactive

$$$$

IN: Outcome logged for `Nc1ccc(O)c(C(=O)O)c1` in this assay:
OUT: inactive

IN: Field: outcome | Entry: `CCCOC(=O)c1ccc(O)cc1`
OUT: inactive

IN: // return assay outcome for `CN(C)c1ccc(C(=C2C=CC(=[N+](C)C)C=C2)c2ccccc2)cc1`
OUT: active

IN: What classification did `O=C(O)/C=C\C(=O)O` end up with in this test?
OUT: inactive

###

test system: CP211; assay: qHTS profiling for inhibitors of Plasmodium falciparum proliferation (AID 504749); further: nearly all actives have a fitted effect of over 60% in size; settings: P. falciparum in erythrocytes, SYBR Green DNA, 72 h; series mostly up to 28.7 µM
Inconclusive results are not listed. The source made the active and inactive calls. The call rests on the fitted dose curve; in most records, active means well fitted inhibition curve with a large enough effect; inconclusive means small, poorly fitted or top-dose-only effect; inactive means flat fitted curve, though single readings scatter.
Mark one answer only. Choices: yes (1) = active, no (0) = inactive

Some solved entries appear below for comparison.
>  <Structure Smiles String>
Nc1ccc(O)c(C(=O)O)c1

>  <Target Or System>
CP211

>  <Label Class>
no (0)

$$$$
>  <Structure Smiles String>
CN1CCN(c2cc3c(nn2)Oc2ccccc2N3C)CC1

>  <Target Or System>
CP211

>  <Label Class>
no (0)

$$$$
>  <Structure Smiles String>
COc1ccc(-c2cc(=S)ss2)cc1

>  <Target Or System>
CP211

>  <Label Class>
no (0)

$$$$
>  <Structure Smiles String>
COc1cc(CNC(=O)CCCC/C=C/C(C)C)ccc1O

>  <Target Or System>
CP211

>  <Label Class>
no (0)

$$$$
>  <Structure Smiles String>
CCCSc1ccc2nc(NC(=O)OC)[nH]c2c1

>  <Target Or System>
CP211

>  <Label Class>
no (0)

$$$$

IN: How was `CC(=O)[C@]1(O)Cc2c(O)c3c(c(O)c2[C@@H](O[C@H]2C[C@H](N)[C@H](O)[C@H](C)O2)C1)C(=O)c1c(O)cccc1C3=O` classified in this test?
OUT: yes (1)
